# experimentalSetup: 298.15 K; Liquid; Gas chromatography
Numbers after ± are expanded uncertainties.
measurementLabel: vapor or sublimation pressure

> print(dat)
                                   compound               measurementlabel  experimentalresult
1  CC(N)C12CC3CC(CC(C3)C1)C2 (centres undefined)  vapor or sublimation pressure   0.003 ± 0.002 kPa
2                     NC12CC3CC(CC(C3)C1)C2  vapor or sublimation pressure   0.021 ± 0.003 kPa
3                         CC(C)(N)Cc1ccccc1  vapor or sublimation pressure   0.035 ± 0.008 kPa
4  N[C@@H]1C[C@H]1c1ccccc1 (relative stereo) [trans-2-phenylcyclopropylamine]  vapor or sublimation pressure    0.028 ± 0.01 kPa
